I'd be grateful if you could share measured Fold Change in Activity of PQ Hydrolysis Relative to Wild Type Kumamolysin-As for these entries.
# TARGET_UNDER_TEST: T1, fluorescently quenched α-gliadin hexapeptide analogue QXL520-PQPQLP-K(5-FAM)-NH2
# T1 chain: PQPQLP
Numbers only, in fold.

Entry under test: Kumamolisin-As N291D, G319S, S354N, D358G, Q361D, D368H (protein) AAPTAYTPLDVAQAYQFPEGLDGQGQCIAIIELGGGYDEASLAQYFASLGVPAPQVVSVSVDGASNQPTGDPSGPDGEVELDIEVAGALAPGAKFAVYFAPDTDAGFLDAITTAIHDPTLKPSVVSISWSGPEDSWTSAAIAAMNRAFLDAAALGVTVLAAAGDNGSTGGEDDGLYHVHFPAASPYVLACGGTRLVASGGRIAQETVWNDGPDGGATGGGVSRIFPLPAWQEHANVPPSANPGASSGRGVPDLAGNADPATGYEVVIDGEATVIGGTSAVAPLFAALVARINQKLGKAVGYLNPTLYQLPADVFHDITEGNNDIANRAQIYQAGPGWDPCTGLGSPIGVRLLQALLPSASQPQPGSTENLYFQSGALEHHHHHH . Its Fold Change in Activity of PQ Hydrolysis Relative to Wild Type Kumamolysin-As was 50

Item: Kumamolisin-As N291D, D293A, G319S, D358G, Q361D, D368H (protein) AAPTAYTPLDVAQAYQFPEGLDGQGQCIAIIELGGGYDEASLAQYFASLGVPAPQVVSVSVDGASNQPTGDPSGPDGEVELDIEVAGALAPGAKFAVYFAPDTAAGFLDAITTAIHDPTLKPSVVSISWSGPEDSWTSAAIAAMNRAFLDAAALGVTVLAAAGDSGSTGGEDDGLYHVHFPAASPYVLACGGTRLVASGGRIAQETVWNDGPDGGATGGGVSRIFPLPAWQEHANVPPSANPGASSGRGVPDLAGNADPATGYEVVIDGEATVIGGTSAVAPLFAALVARINQKLGKAVGYLNPTLYQLPADVFHDITEGNNDIANRAQIYQAGPGWDPCTGLGSPIGVRLLQALLPSASQPQPGSTENLYFQSGALEHHHHHH | Fold Change in Activity of PQ Hydrolysis Relative to Wild Type Kumamolysin-As: 40.9

Item: Kumamolisin-As N291D, Q361D, D358G (protein) AAPTAYTPLDVAQAYQFPEGLDGQGQCIAIIELGGGYDEASLAQYFASLGVPAPQVVSVSVDGASNQPTGDPSGPDGEVELDIEVAGALAPGAKFAVYFAPDTDAGFLDAITTAIHDPTLKPSVVSISWGGPEDSWTSAAIAAMNRAFLDAAALGVTVLAAAGDSGSTGGEDDGLYHVDFPAASPYVLACGGTRLVASGGRIAQETVWNDGPDGGATGGGVSRIFPLPAWQEHANVPPSANPGASSGRGVPDLAGNADPATGYEVVIDGEATVIGGTSAVAPLFAALVARINQKLGKAVGYLNPTLYQLPADVFHDITEGNNDIANRAQIYQAGPGWDPCTGLGSPIGVRLLQALLPSASQPQPGSTENLYFQSGALEHHHHHH | Fold Change in Activity of PQ Hydrolysis Relative to Wild Type Kumamolysin-As: 20

Value of measured Fold Change in Activity of PQ Hydrolysis Relative to Wild Type Kumamolysin-As for the entry Kumamolisin-As S262G, T292S, N291D, G319S, D358G, D368H (protein) AAPTAYTPLDVAQAYQFPEGLDGQGQCIAIIELGGGYDEASLAQYFASLGVPAPQVVSVSVDGASNQPTGDPGGPDGEVELDIEVAGALAPGAKFAVYFAPDSDAGFLDAITTAIHDPTLKPSVVSISWSGPEDSWTSAAIAAMNRAFLDAAALGVTVLAAAGDSGSTGGEQDGLYHVHFPAASPYVLACGGTRLVASGGRIAQETVWNDGPDGGATGGGVSRIFPLPAWQEHANVPPSANPGASSGRGVPDLAGNADPATGYEVVIDGEATVIGGTSAVAPLFAALVARINQKLGKAVGYLNPTLYQLPADVFHDITEGNNDIANRAQIYQAGPGWDPCTGLGSPIGVRLLQALLPSASQPQPGSTENLYFQSGALEHHHHHH : 29

Form: protein = Kumamolisin-As G319S, D368S (protein) AAPTAYTPLDVAQAYQFPEGLDGQGQCIAIIELGGGYDEASLAQYFASLGVPAPQVVSVSVDGASNQPTGDPSGPDGEVELDIEVAGALAPGAKFAVYFAPNTDAGFLDAITTAIHDPTLKPSVVSISWSGPEDSWTSAAIAAMNRAFLDAAALGVTVLAAAGDSGSTDGEQDGLYHVSFPAASPYVLACGGTRLVASGGRIAQETVWNDGPDGGATGGGVSRIFPLPAWQEHANVPPSANPGASSGRGVPDLAGNADPATGYEVVIDGEATVIGGTSAVAPLFAALVARINQKLGKAVGYLNPTLYQLPADVFHDITEGNNDIANRAQIYQAGPGWDPCTGLGSPIGVRLLQALLPSASQPQPGSTENLYFQSGALEHHHHHH ; Fold Change in Activity of PQ Hydrolysis Relative to Wild Type Kumamolysin-As = 2

get_value(item= Kumamolisin-As N291D, Q361D (protein) AAPTAYTPLDVAQAYQFPEGLDGQGQCIAIIELGGGYDEASLAQYFASLGVPAPQVVSVSVDGASNQPTGDPSGPDGEVELDIEVAGALAPGAKFAVYFAPDTDAGFLDAITTAIHDPTLKPSVVSISWGGPEDSWTSAAIAAMNRAFLDAAALGVTVLAAAGDSGSTDGEDDGLYHVDFPAASPYVLACGGTRLVASGGRIAQETVWNDGPDGGATGGGVSRIFPLPAWQEHANVPPSANPGASSGRGVPDLAGNADPATGYEVVIDGEATVIGGTSAVAPLFAALVARINQKLGKAVGYLNPTLYQLPADVFHDITEGNNDIANRAQIYQAGPGWDPCTGLGSPIGVRLLQALLPSASQPQPGSTENLYFQSGALEHHHHHH , readout=Fold Change in Activity of PQ Hydrolysis Relative to Wild Type Kumamolysin-As) returns 7.5

Below: the item to evaluate.
The protein Kumamolisin-As N291D, D293A (protein) AAPTAYTPLDVAQAYQFPEGLDGQGQCIAIIELGGGYDEASLAQYFASLGVPAPQVVSVSVDGASNQPTGDPSGPDGEVELDIEVAGALAPGAKFAVYFAPDTAAGFLDAITTAIHDPTLKPSVVSISWGGPEDSWTSAAIAAMNRAFLDAAALGVTVLAAAGDSGSTDGEQDGLYHVDFPAASPYVLACGGTRLVASGGRIAQETVWNDGPDGGATGGGVSRIFPLPAWQEHANVPPSANPGASSGRGVPDLAGNADPATGYEVVIDGEATVIGGTSAVAPLFAALVARINQKLGKAVGYLNPTLYQLPADVFHDITEGNNDIANRAQIYQAGPGWDPCTGLGSPIGVRLLQALLPSASQPQPGSTENLYFQSGALEHHHHHH showed Fold Change in Activity of PQ Hydrolysis Relative to Wild Type Kumamolysin-As equal to 15

Each recorded value in this set is attributed to patent US20190083585.
